assay_name: chemical genetic growth profiling, strain panel (AID 1159580);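 also: tested at 20 µM; growth read once vehicle control cultures reached saturation at 30 °C; 1 = growth at the plate median or of vehicle wells; lower values mean less growth of the strain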
experimental_conditions: S. cerevisiae deletion strains, growth OD, locus YKL009W, strain mrt4, hits give low values
The campaign covered roughly 5,500 compounds. About 2,000 (36%) were called active. Roughly 18% stayed inconclusive and do not appear here. This is one part of the list.
reported_metric: normalized growth
Keep the answer to the number alone.

Incoming: Let me know recorded normalized growth for COC(=O)C(O)[C@H]1C(C)(C)[C@@H](OC(C)=O)[C@@H]2CC3=C4CC(=O)O[C@@H](c5ccoc5)[C@]4(C)CCC3[C@@]1(C)C2=O (some centres undefined) , thanks.
Outgoing: 1.01

Incoming: Let me know recorded normalized growth for Cc1ccc(O)c(C(CCN(C(C)C)C(C)C)c2ccccc2)c1 (centres undefined) , thanks.
Outgoing: 1

Incoming: Let me know recorded normalized growth for Cn1c(=O)c2c(ncn2CCCl)n(C)c1=O , thanks.
Outgoing: 1.03
